test system: NCI-H929 complex spheroids, viability % test/control; experiment: Anticancer human tumor NCI-H929 cell line growth inhibition [RAS]; settings: second compound 0.3 µM; first compound 0.1 µM; hits give low values;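 also: compound exposure lasted seven days before viability was read; 100% = DMSO vehicle control viability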
READOUT_TYPE: viability, T/C (%)
Note: unit % is implicit; provide only the numeric part.

Item: C=CC(=O)N1CCN(c2nc(OCC3CCCN3C)nc3c(F)c(-c4nc(N)cc(C)c4C(F)(F)F)c(Cl)cc23)C(C)C1 (centres undefined) + CCn1c(-c2cccnc2C(C)OC)c2c3cc(ccc31)N1CCOC(CC(NC(=O)C(C(C)C)N(C)C(=O)C3(F)CCN(C(=O)C#CC(C)(C)N(C)C)CC3)C(=O)N3CCCC(N3)C(=O)OCC(C)(C)C2)C1 | System: NCI-H929 complex spheroids, viability % test/control | viability, T/C: 107

Item CCN1CCN(Cc2ccc(Nc3ncc(F)c(-c4cc(F)c5nc(C)n(C(C)C)c5c4)n3)nc2)CC1 + CCn1c(-c2cc(N3CCN(C)CC3)cnc2C(C)OC)c2c3cc(ccc31)-c1csc(n1)CC(NC(=O)C1CC1C)C(=O)N1CCCC(N1)C(=O)OCC(C)(C)C2 ; assay system NCI-H929 complex spheroids, viability % test/control; viability, T/C reported as 2.03

The molecule CCC(CC)c1cc(NC2CCC(N)C2)n2nccc2n1 (centres undefined) + CCn1c(-c2cccnc2C(C)OC)c2c3cc(ccc31)N1CCOC(CC(NC(=O)C(C(C)C)N(C)C(=O)C3(F)CCN(C(=O)C#CC(C)(C)N(C)C)CC3)C(=O)N3CCCC(N3)C(=O)OCC(C)(C)C2)C1 , when measured on NCI-H929 complex spheroids, viability % test/control, yielded viability, T/C of 96.7

Record C[C@@H](NC(=O)c1ncnc(N)c1Cl)c1ncc(C(=O)Nc2cc(C(F)(F)F)c(Cl)cn2)s1 + CCn1c(-c2cccnc2C(C)OC)c2c3cc(ccc31)N1CCOC(CC(NC(=O)C(C(C)C)N(C)C(=O)C3(F)CCN(C(=O)C#CC(C)(C)N(C)C)CC3)C(=O)N3CCCC(N3)C(=O)OCC(C)(C)C2)C1 / NCI-H929 complex spheroids, viability % test/control, viability, T/C recorded as 105

###

Give viability, T/C for every item shown.
system: NCI-H929 complex spheroids, viability % test/control; assay: Anticancer human tumor NCI-H929 cell line growth inhibition [RAS]; settings: second compound 0.0316 µM; first compound 0.1 µM; hits give low values;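 also: compound exposure lasted seven days before viability was read; 100% = DMSO vehicle control viability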
// note: answer is a bare numeric in %

Sample CC(=O)OC12COC1CC(O)C1(C)C(=O)C(O)C3=C(C)C(OC(=O)C(O)C(NC(=O)OC(C)(C)C)c4ccccc4)CC(O)(C(OC(=O)c4ccccc4)C21)C3(C)C (centres undefined) + C#Cc1c(F)ccc2cc(O)cc(-c3ncc4c(N5CC6CCC(C5)N6)nc(OCC56CCCN5CC(F)C6)nc4c3F)c12 ; viability, T/C observed: 1.3

Short answer for CCN1CCN(Cc2ccc(Nc3ncc(F)c(-c4cc(F)c5nc(C)n(C(C)C)c5c4)n3)nc2)CC1 + C=CC(=O)N1CCN(c2nc(OCC3CCCN3C)nc3c(F)c(-c4nc(N)cc(C)c4C(F)(F)F)c(Cl)cc23)C(C)C1 : viability, T/C was 109

The measured viability, T/C associated with CC(Nc1ccc2c(c1)OCCn1cc(N3C(=O)OCC3C(F)F)nc1-2)C(N)=O (centres undefined) + C#Cc1c(F)ccc2cc(O)cc(-c3ncc4c(N5CC6CCC(C5)N6)nc(OCC56CCCN5CC(F)C6)nc4c3F)c12 reads 102

Documented viability, T/C of NC1c2ccccc2OC12CCN(c1cnc3c(N4CCCc5ncccc54)n[nH]c3n1)CC2 (centres undefined) + C#Cc1c(F)ccc2cc(O)cc(-c3ncc4c(N5CC6CCC(C5)N6)nc(OCC56CCCN5CC(F)C6)nc4c3F)c12 : 91.8

// viability, T/C lookup, compound = C=CC(=O)N1CCN(c2nc(OCC3CCCN3C)nc3c(F)c(-c4nc(N)cc(C)c4C(F)(F)F)c(Cl)cc23)C(C)C1 (centres undefined) + C#Cc1c(F)ccc2cc(O)cc(-c3ncc4c(N5CC6CCC(C5)N6)nc(OCC56CCCN5CC(F)C6)nc4c3F)c12 , result: 97.3

CC(C)NCC(C(=O)N1CCN(c2ncnc3c2C(C)CC3O)CC1)c1ccc(Cl)cc1 (centres undefined) + C#Cc1c(F)ccc2cc(O)cc(-c3ncc4c(N5CC6CCC(C5)N6)nc(OCC56CCCN5CC(F)C6)nc4c3F)c12 yielded viability, T/C of 105

The compound listed as C[C@@H](NC(=O)c1ncnc(N)c1Cl)c1ncc(C(=O)Nc2cc(C(F)(F)F)c(Cl)cn2)s1 + C#Cc1c(F)ccc2cc(O)cc(-c3ncc4c(N5CC6CCC(C5)N6)nc(OCC56CCCN5CC(F)C6)nc4c3F)c12 has a reported viability, T/C of 89

viability, T/C measured on CCN1CCN(Cc2ccc(Nc3ncc(F)c(-c4cc(F)c5nc(C)n(C(C)C)c5c4)n3)nc2)CC1 + C#Cc1c(F)ccc2cc(O)cc(-c3ncc4c(N5CC6CCC(C5)N6)nc(OCC56CCCN5CC(F)C6)nc4c3F)c12 = 106

Record summary for CC(C)n1nc(-c2ccc3oc(N)nc3c2)c2c(N)ncnc21 + C=CC(=O)N1CCN(c2nc(OCC3CCCN3C)nc3c(F)c(-c4nc(N)cc(C)c4C(F)(F)F)c(Cl)cc23)C(C)C1 : reported viability, T/C = 12.9
